As shown below, each of these molecules has a reported Kp uu at 6 h value.
# experiment_summary: Ratio of free drug level in brain to plasma in iv dosed rat measured after 6 hrs infusion
# Assay type: ADME, organism-based
# assay_conditions: read-out: K(p,uu,brain)
measured_parameter: Kp uu at 6 h

>>> df
                            molecule_smiles  meas_value
0  CC(C)N1CCC(Oc2ccc(C3(C(N)=O)CCOCC3)cc2)CC1         0.1
1  CC(C)N1CCC(Oc2ccc3c(n2)CCN(c2ccc(C(N)=O)cn2)C3)CC1         0.1

* * *

# assay_target: Histamine H3 receptor (Rattus norvegicus, UniProt Q9QYN8)
# Sequence (Q9QYN8 whole entry): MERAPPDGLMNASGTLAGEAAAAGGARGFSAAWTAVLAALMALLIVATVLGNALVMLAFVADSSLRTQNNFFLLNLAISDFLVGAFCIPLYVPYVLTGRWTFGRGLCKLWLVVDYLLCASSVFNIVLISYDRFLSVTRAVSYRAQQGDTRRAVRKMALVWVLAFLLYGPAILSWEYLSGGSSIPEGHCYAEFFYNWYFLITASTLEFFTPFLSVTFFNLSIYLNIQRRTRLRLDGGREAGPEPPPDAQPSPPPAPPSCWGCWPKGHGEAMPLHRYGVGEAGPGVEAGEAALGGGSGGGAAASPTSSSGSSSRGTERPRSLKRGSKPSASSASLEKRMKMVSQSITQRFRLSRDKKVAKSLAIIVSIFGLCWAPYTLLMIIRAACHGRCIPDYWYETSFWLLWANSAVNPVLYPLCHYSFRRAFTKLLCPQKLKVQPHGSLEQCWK
# experiment_summary: Displacement of [3H]-N-alpha-methylhistamine from histamine H3 receptor in rat brain
# Assay type: tissue-based
measured_parameter: Ki (nM)

In [3]: df
Out[3]:
                            molecule_smiles  meas_value
0  CC(C)N1CCC(Oc2ccc(C3(C(N)=O)CCOCC3)cc2)CC1         145

Every entry's value here was drawn from ChEMBL document CHEMBL3217600.
